Biological target: T1, PABPN1 CCRRM fragment (coiled coil + RRM) (UniProt Q86U42 114-254)
T1 sequence: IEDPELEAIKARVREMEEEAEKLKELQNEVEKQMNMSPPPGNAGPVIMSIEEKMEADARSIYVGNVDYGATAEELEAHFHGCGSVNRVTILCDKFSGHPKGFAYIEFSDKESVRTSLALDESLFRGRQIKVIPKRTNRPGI
Assay: BLI; kon 4.24e-5 (so in the source), koff 2.031e-3 s-1; text ranks A18 intermediate, inconsistent with values; EMSA and SHAPE: 10 mM Tris-HCl pH 8.0, 25 mM KCl, 10 mM NaCl, 1 mM MgCl2, 10% glycerol, 0.5 mM DTT, 25 C, 20 min (1M7 step at 35 C); BLI: room temperature, 0.5
Conditions: protein: recombinant; tags: Trx and His (Ni-NTA) fusion, pET-MG vector; label: 5' biotin

| binder | Kd [nM] |
| --- | --- |
| AAAAAAAAAAAAAAAAAA (ssRNA) [A18] | 4.79 |
